The reported measurements were obtained from patent US20070161611A1.

Let's look at some compounds and their measured pEC50.
- Tested on: HIV-1RF
- TEST NAME: Anti-HIV-1 activity in CEM-SS cells (inhibition of HIV-1 induced cytotoxicity)
- SETUP CONDITIONS: Human immunodeficiency virus 1, CEM-SS, read-out: CEM-SS/HIV-1RF EC50
pEC50: −log10 of the molar value.
MEASUREMENT NAME: pEC50

{"COMPOUND": "CO/N=C1\\CC[C@H]2[C@@H]3CCc4cc(O)c(C56CC7CC(CC(C7)C5)C6)cc4[C@H]3CC[C@]12C [Compound 5]", "RESULT MODIFIER": "=", "VALUE MEASURED": 5.24}
{"COMPOUND": "C[C@]12CC[C@@H]3c4ccc(OS(=O)(=O)O)cc4CC[C@H]3[C@@H]1CC[C@H]2O [Compound 16, 17(α)-estradiol-3-sulfate sodium]", "RESULT MODIFIER": "<", "VALUE MEASURED": 3.52}
{"COMPOUND": "C[C@]12CC[C@@H]3c4cc(C56CC7CC(CC(C7)C5)C6)c(O)cc4CC[C@H]3[C@@H]1CC[C@@H]2O [Compound 20]", "RESULT MODIFIER": "=", "VALUE MEASURED": 5.07}
{"COMPOUND": "C[C@]12CCC3c4cc(C56CC7CC(CC(C7)C5)C6)c(O)cc4CCC3C1CCC2=O (stereo partly shown) [Compound 2]", "RESULT MODIFIER": "=", "VALUE MEASURED": 4.71}

====

- TEST NAME: Cytotoxicity in uninfected MDBK cells after 24 h treatment (OD490)
- Assay type: cell-based, bovine
- SETUP CONDITIONS: bovine, compared to control, read-out: % Cytotoxicity of Compound 20 (1 μM)
- Description: Madin-Darby Bovine Kidney Cells (MDBK) (American Type Culture Collection (ATCC) No. CCL-22, Manassas, Va) were seeded into 96-well plates at a density of approximately 2×10^4 cells per well. The cell cultures were incubated for 3-24 hours to allow for attachment of cells to the culture plates prior to infection and addition of compounds. […] The virus plaques formed in MDBK cell cultures were quantified by a manual count and a titer was determined.

{"COMPOUND": "C[C@]12CC[C@@H]3c4cc(C56CC7CC(CC(C7)C5)C6)c(O)cc4CC[C@H]3[C@@H]1CC[C@@H]2O [Compound 20]", "cytotoxicity at 24 h, 1 µM / %": 0}

====

- TEST NAME: in vitro
- SETUP CONDITIONS: human, CEM-SS cells

{"COMPOUND": "C[C@]12CC[C@@H]3c4ccc(OS(=O)(=O)O)cc4CC[C@H]3[C@@H]1CC[C@H]2O [Compound 16, 17(α)-estradiol-3-sulfate sodium]", "CC50": "> 300 µM"}

====

Let's look at some molecules and their measured CC50 at 3 days.
- TEST NAME: Toxicity in AVA5 replicon cells (neutral red dye uptake)
- SETUP CONDITIONS: human, AVA5 cells (HCV RNA-replicating, Huh7-derived)

{"MOLECULE": "C[C@]12CC[C@@H]3c4ccc(OS(=O)(=O)O)cc4CC[C@H]3[C@@H]1CC[C@H]2O [Compound 16, 17(α)-estradiol-3-sulfate sodium]", "UNITS OF MEASURE": "µM", "RESULT MODIFIER": ">", "CC50 at 3 days": 100}
{"MOLECULE": "C[C@]12CC[C@@H]3c4cc(C56CC7CC(CC(C7)C5)C6)c(O)cc4CC[C@H]3[C@@H]1CC/C2=N\\N", "UNITS OF MEASURE": "µM", "RESULT MODIFIER": "=", "CC50 at 3 days": 24}
{"MOLECULE": "C[C@]12CC[C@@H]3c4cc(C56CC7CC(CC(C7)C5)C6)c(O)cc4CC[C@H]3[C@@H]1CC[C@@H]2O", "UNITS OF MEASURE": "µM", "RESULT MODIFIER": "=", "CC50 at 3 days": 8.1}
